B1: r11_951_TrROS_Hall (parent)
chain: KKKYVIKVYFEDTGKEVEIEAESKEEALEAAKRLAEELGLKIKKVEIYP

- Variants of: B1
- protocolDetails: folding stability dG (cDNA display proteolysis); higher = more stable
- measurementConditions: PBS, room temperature
The entries below are paired with their reported folding stability dG.
Report as a plain number; the unit kcal/mol is understood.

biosequence=KKKYVLKVYFEDTGKEVEIEAESKEEALEAAKRLAEELGLKIKKVEIYP resulttype="folding stability dG" endpointresult=4.34
biosequence=KKKYVIKVYFEDTGKEVEIEAESKEEALEAAKNLAEELGLKIKKVEIYP resulttype="folding stability dG" endpointresult=4.22
biosequence=KKKYVIKVYFEDTGKEVEIEAESKEEALEAAKRLAEELGLKIKKNEIYP resulttype="folding stability dG" endpointresult=3.32

Task item: Entry "KKKQVIKVYFEDTGKEVEIEAESKEEALEAAKRLAEELGLKIKKVEIYP" has what folding stability dG?
Reply: 3.55

Task item: Entry "KKKYVIFVYFEDTGKEVEIEAESKEEALEAAKRLAEELGLKIKKVEIYP" has what folding stability dG?
Reply: 4.21

Task item: Entry "KKKYVIKVYFEDHGKEVEIEAESKEEALEAAKRLAEELGLKIKKVEIYP" has what folding stability dG?
Reply: 4.33
